Source: paper PMC11855827

Test system: C. elegans
Test: microbe, parasite or virus in culture
Details: Caenorhabditis elegans, 24 h, read-out: Percentage of motility inhibition 24 h, Table S2, C. elegans SS assay, 110 μM, 24 h, averages of 4 data points
Recorded inhibition at 110 µM determines the label; the label ranges are c1 (below 2%), c2 (2% to below 10%), c3 (10% or more)

COC(=O)C1=CO[C@@H](O[C@@H]2O[C@H](CO)[C@@H](O)[C@H](O)[C@H]2O)[C@@H]2[C@H](C)O[C@@H](O)C[C@H]12 [Morroniside] : c3
NC(=O)c1cnccn1 [Pyrazinamide] : c3
COc1cc2c(cc1OC)[C@@H]1C(=O)c3ccc4c(c3O[C@@H]1CO2)C=CC(C)(C)O4 [Deguelin] : c1
CC[C@@H]1CN2CC[C@@]3(C(=O)Nc4ccccc43)[C@@H]2C[C@@H]1/C(=C\OC)C(=O)OC [Corynoxine] : c2
CC(CC(=O)C[C@@H](C)[C@H]1CC(=O)[C@@]2(C)C3=C(C(=O)[C@@H](O)[C@]12C)[C@@]1(C)CC[C@H](O)C(C)(C)[C@@H]1C[C@@H]3O)C(=O)O (some centres unmarked) [Ganoderic acid G] : c2

Request: Bin? O=C1c2c(O)cc(O)cc2OC(c2ccc(O)c(O)c2)C1O (centres unmarked) [Taxifolin]
Result: c3

Request: Same question, C=C1C[C@]23C[C@@]1(O)CC[C@H]2[C@@]12C=C[C@H](O)[C@@](C)(C(=O)O1)[C@H]2[C@@H]3C(=O)O [Gibberellic acid] this time
Result: c3

Request: Same question, CCN1C[C@]2(COC)CC[C@H](OC)[C@]34C1[C@H](C[C@H]23)[C@@]1(O)C[C@H](OC)[C@H]2C[C@@H]4[C@@H]1[C@H]2O [Talatisamine] this time
Result: c1

Request: Same question, C[n+]1cccc(C(=O)[O-])c1 [Trigonelline] this time
Result: c1

Request: Same question, C[C@]12CC[C@@H]3c4ccc(O)cc4CC[C@H]3[C@@H]1CCC2=O [Estrone] this time
Result: c1

---

Test system: C. elegans
Conditions: Table S2, C. elegans SS assay, 110 μM, 0 h, averages of 4 data points
Below: a set of entries, each annotated with reported Percentage of motility inhibition 0 h.
# unit: % | format: bare number

Here is how some molecules turned out for Percentage of motility inhibition 0 h.
C[C@@H]1O[C@@H](O[C@H]2[C@H](O[C@H]3[C@H](O[C@H]4CC[C@]5(C)[C@H]6CC=C7[C@@H]8CC(C)(C)CC[C@]8(C(=O)O)CC[C@@]7(C)[C@]6(C)CC[C@H]5C4(C)C)OC[C@H](O)[C@@H]3O)O[C@H](CO)[C@@H](O)[C@@H]2O)[C@H](O)[C@H](O)[C@H]1O : 4
C[C@H](CO[C@@H]1O[C@H](CO)[C@@H](O)[C@H](O)[C@H]1O)[C@H]1CC[C@@]2(CC[C@]3(C)[C@H](CC[C@@H]4[C@@]5(C)CC[C@H](O[C@@H]6O[C@H](CO)[C@@H](O)[C@H](O)[C@H]6O[C@@H]6OC[C@@H](O)[C@H](O)[C@H]6O)[C@@](C)(CO)[C@@H]5CC[C@]43C)[C@H]2O)CO1 [Hosenkoside F] : 12
O=C(O)[C@H]1O[C@@H](Oc2c(-c3ccc(O)cc3)oc3cc(O)cc(O)c3c2=O)[C@H](O)[C@@H](O)[C@@H]1O [Kaempferol 3‐O‐β‐D‐glucuronide] : 5
C[C@H](CC[C@@H](O[C@@H]1O[C@H](CO[C@@H]2O[C@H](CO)[C@@H](O)[C@H](O)[C@H]2O)[C@@H](O)[C@H](O)[C@H]1O)C(C)(C)O)[C@H]1CC[C@@]2(C)[C@@H]3CC=C4[C@@H](CC[C@H](O[C@@H]5O[C@H](CO[C@@H]6O[C@H](CO)[C@@H](O)[C@H](O)[C@H]6O)[C@@H](O)[C@H](O)[C@H]5O)C4(C)C)[C@]3(C)[C@H](O)C[C@]12C [Mogroside IV-A] : 0
CC1(C)CC[C@]2(C(=O)O[C@@H]3O[C@H](CO)[C@@H](O)[C@H](O)[C@H]3O)CC[C@]3(C)C(=CC[C@@H]4[C@@]5(C)CC[C@H](O[C@@H]6O[C@H](C(=O)O)[C@@H](O)[C@H](O[C@@H]7OC[C@@H](O)[C@H](O)[C@H]7O)[C@H]6O)C(C)(C)[C@@H]5CC[C@]43C)[C@@H]2C1 : 0
CCCCCc1cc(=O)c2ccccc2n1C : 44
COC(=O)[C@@]1(C)CC[C@]2(C(=O)O)CC[C@]3(C)C(=CC[C@@H]4[C@@]5(C)C[C@H](O)[C@H](O)[C@@](C)(CO)[C@@H]5CC[C@]43C)[C@@H]2C1 : 5
COc1ccc2c(c1)[nH]c1c(C)nccc12.Cl [Harmine (hydrochloride)] : 22

Request: What value of Percentage of motility inhibition 0 h has been recorded for this entry: C/C=C/C=C/C=C\CC/C=C/C(=O)NCC(C)(C)O [Hydroxy‐α‐sanshool]
Result: 3

Request: Same question, CCOC(=O)c1c(CSc2ccccc2)n(C)c2cc(Br)c(O)c(CN(C)C)c12.Cl [Arbidol (hydrochloride)] this time
Result: 33

Request: Same question, Cl.O[C@H]1CCN2Cc3ccccc3N=C12 [Vasicine (hydrochloride)] this time
Result: 0

Request: Same question, NCCC[C@H](N)C(=O)O this time
Result: 2

Request: Same question, Cl.NCCCC[C@H](N)C(=O)O [L-Lysine hydrochloride] this time
Result: 19
